Test system: Mycobacterium smegmatis DSM 43061
PROCEDURE_TEXT: MIC by broth microdilution, rapidly growing mycobacteria
Assay type: cell-based
REPORTED_CONDITIONS: Mycolicibacterium smegmatis, DSM43061; strain DSM 43061; inoculum 2.20E + 04 /ml; 37° C., 2-4 days
Protocol: For rapidly growing mycobacteria the MIC determination was carried out following the broth microdilution method described by Swenson [cf. J. M. Swenson, C. Thomberry, U. A. Silcox, Rapidly growing mycobacteria. Testing of susceptibility to 34 antimicrobial agents by broth microdilution. Antimicrobial Agents and Chemotherapy Vol. 22, 186-192 (1982)]. […] The MIC values were read off after 2-4 days when the preparation-free controls had become turbid due to growth.
MEASURED_ATTRIBUTE: log10 MIC (log10 of the value in µg/mL)
All values: log10 MIC [µg/mL].

Recorded log10 MIC, per entry:
MOLECULE: CNC(=S)NC[C@H]1CN(c2ccc(-c3cccnc3)s2)C(=O)O1
TARGET: Mycobacterium smegmatis DSM 43061
log10 MIC: 0.90
--
MOLECULE: CC(=S)NC[C@H]1CN(c2ccc(-c3cccnc3)s2)C(=O)O1
TARGET: Mycobacterium smegmatis DSM 43061
log10 MIC: 0.00
--
MOLECULE: CNC(=S)NC[C@H]1CN(c2ccc3c(c2)sc(=O)n3C)C(=O)O1
TARGET: Mycobacterium smegmatis DSM 43061
log10 MIC: -0.60
--
MOLECULE: CNC(=S)NC[C@H]1CN(c2ccc(-c3ccncc3)s2)C(=O)O1
TARGET: Mycobacterium smegmatis DSM 43061
log10 MIC: 0.90
--
MOLECULE: NNC(=O)c1ccncc1 [Isoniazide, reference compound]
TARGET: Mycobacterium smegmatis DSM 43061
log10 MIC: 0.60

# molecule "CC(=S)NC[C@H]1CN(c2ccc(-c3ccncc3)s2)C(=O)O1" ; its log10 MIC = 0.30

* * *

Tested on: Staph. 9TV
PROCEDURE_TEXT: MIC by serial dilution on Iso-Sensitest Agar
Format: cell-based
REPORTED_CONDITIONS: 37° C., about 20 hours
MEASURED_ATTRIBUTE: MIC (µg/mL)
Answers are plain numbers, in µg/mL.

Recorded MIC, per entry:
COMPOUND: CNC(=S)NC[C@H]1CN(c2ccc3nc(SC)sc3c2)C(=O)O1 [Example 23]
MIC [µg/mL]: 0.25
//
COMPOUND: CC(=S)NC[C@H]1CN(c2cc3ccc(Cl)cc3s2)C(=O)O1 [Example 43]
MIC [µg/mL]: 0.5
//
COMPOUND: CCC(=S)NC[C@H]1CN(c2ccc3ccsc3c2)C(=O)O1 [Example 11]
MIC [µg/mL]: 0.25
//
COMPOUND: CNC(=S)NC[C@H]1CN(c2ccc(-c3ccncc3)s2)C(=O)O1 [Example 12]
MIC [µg/mL]: 0.5

Next compound, please.
# compound CNC(=S)NC[C@H]1CN(c2ccc(-c3cccnc3)s2)C(=O)O1 [Example 14] ; its MIC = 0.5

* * *

Test system: Mycoplasma pneumoniae strain PI 1428
PROCEDURE_TEXT: MIC determination with Mycoplasma pneumoniae, serial microdilution
Assay type: cell-based
REPORTED_CONDITIONS: PI1428, PPLO medium, anaerobic, 37° C., Alamar Blue
Exercise: for every item that follows, state its recorded MIC.
Numbers only, in µg/mL.

Recorded MIC, per entry:
MOLECULE_SMILES: CNC(=S)NC[C@H]1CN(c2ccc3nc(SC)sc3c2)C(=O)O1
MIC (µg/mL): 4
//
MOLECULE_SMILES: CNC(=S)NC[C@H]1CN(c2ccc(-c3cccnc3)s2)C(=O)O1
MIC (µg/mL): 8
//
MOLECULE_SMILES: CNC(=S)NC[C@H]1CN(c2ccc(-c3ccncc3)s2)C(=O)O1
MIC (µg/mL): 2

Next compound, please.
Form field MIC for item "CC(=S)NC[C@H]1CN(c2ccc(-c3ccncc3)s2)C(=O)O1" on Mycoplasma pneumoniae strain PI 1428: 2
